Where do these numbers come from? They come from patent US20190119200A1.

molecules and their reported Emax
System: LPA-induced MCP-1 in NRK-49F cells
Test: LPA-induced MCP-1 AlphaLISA assay
Type: cell-based
Conditions: Rattus norvegicus, final LPA 10 μM, 7 hours, read-out: Maximum Inhibition
Answer in %, number only, no unit symbol.

Worked cases, Emax given:
COc1ccc(C2(C(=O)N(CCCCC(=O)O)CCCc3ccccc3)CCC2)cc1 [Example 86] : 74
COc1cc(C(=O)N(CCCCC(=O)O)CCCc2ccccc2)ccc1Cl [Example 17] : 65
COc1cc(C(=O)N(CCCc2ccc(F)cc2)CCOCC(=O)O)cc(OC)c1C [Example 139] : 72
COc1cc(C(=O)N(CCCc2ccc(C)o2)CCCC(C)C(=O)O)cc(OC)c1C (centres unmarked) [Example 179] : 74

Which Emax reading was recorded for the molecule COc1cc(C(=O)N(CCCCC(=O)O)CCc2ccccc2)cc(OC)c1C [Example 95] ?
18

###

Target: LPAR1 (Homo sapiens, UniProt Q92633)
Construct: host or cells: U2OS
Sequence (Q92633 whole entry): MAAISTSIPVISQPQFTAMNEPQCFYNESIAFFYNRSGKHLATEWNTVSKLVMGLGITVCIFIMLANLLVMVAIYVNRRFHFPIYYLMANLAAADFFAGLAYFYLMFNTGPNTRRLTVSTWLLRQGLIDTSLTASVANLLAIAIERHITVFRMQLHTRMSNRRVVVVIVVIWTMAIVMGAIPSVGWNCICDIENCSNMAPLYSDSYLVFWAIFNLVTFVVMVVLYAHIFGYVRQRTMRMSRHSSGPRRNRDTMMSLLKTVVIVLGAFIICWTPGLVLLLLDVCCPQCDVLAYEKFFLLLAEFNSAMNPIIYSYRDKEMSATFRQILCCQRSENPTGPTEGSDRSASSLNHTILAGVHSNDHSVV
Assay: LPAR1 FLIPR Assay
Type: cell-based
Conditions: U2OS cells stably expressing LPAR1; LPA (EC80); Calcium 6 FLIPR dye
compounds and their reported pIC50
Entry type: numeric. Quantity: pIC50, the -log10 of concentration in molar units.

COc1cc(C(=O)N(CCCc2cccc(F)c2)CCOCC(=O)O)cc(OC)c1C [Example 129] : 7.70
COc1cc(OC)c(F)c(C(=O)N(CCCCC(=O)O)CCCc2ccccc2)c1 [Example 58] : 7.49
COc1cc(C(=O)N(CCCCC(=O)NS(=O)(=O)c2ccccn2)CCCc2ccccc2)cc(OC)c1C [Example 141] : 7.55
COc1ccc(C2(C(=O)N(CCCCC(=O)O)CCCc3ccccc3)CC2)cc1Cl [Example 107] : 7.11
COc1cc(C(=O)N(CCCc2ccccc2)CCOCCC(=O)O)cc(OC)c1C [Example 56] : 7.68

Which pIC50 reading was recorded for the compound COc1cc(OC)cc(C(=O)N(CCCCP(=O)(O)O)CCCc2ccccc2)c1 [Example 75] ?
7.70

Now this one: COc1cc(C(=O)N(CCCc2ccccc2F)CCSCC(=O)O)cc(OC)c1C [Example 116]
7.70

Now this one: COc1cc(C(=O)N(CCCCC(=O)O)CCCc2ccccc2)nc(OC)n1 [Example 163]
6.61

Now this one: COc1cc(C(=O)N(CCCc2ccccc2)CCCC(C)C(=O)NS(C)(=O)=O)cc(OC)c1C (centres unmarked) [Example 161]
7.00

Now this one: COc1cc(C(=O)N(CCCc2ccccc2)CCC[C@H](C)C(=O)O)cc(OC)c1C (single isomer, unassigned) [Example 78]
7.48

###

Target: LPAR1 (Homo sapiens)
Construct: host or cells: U2OS
Test: LPAR1 FLIPR Assay
Assay type: cell-based
Conditions: U2OS cells stably expressing LPAR1; LPA (EC80); Calcium 6 FLIPR dye
measured endpoint: IC50

COc1cc(C(=O)N(C/C=C/CC(=O)O)CCCc2ccccc2)cc(OC)c1C : 503 nM
COc1cc(C(=O)N(CCCc2ccccc2)CCCC(C)(C)C(=O)NS(C)(=O)=O)cc(OC)c1C : 76 nM
CCCCC(CCCN(CCCc1ccccc1)C(=O)c1cc(OC)c(C)c(OC)c1)C(=O)O (centres unmarked) : 43 nM
Cc1c(Cl)cc(C(=O)N(CCCCC(=O)O)CCCc2ccccc2)cc1Cl : 985 nM

Which IC50 reading was recorded for the compound COc1cc(C(=O)N(CCCc2ccccc2)CCSC(C)CC(=O)O)cc(OC)c1C (centres unmarked) ?
29 nM

Now this one: COc1cc(C(=O)N(CCCc2ccccc2)CCCC(C)P(=O)(O)O)cc(OC)c1C (centres unmarked)
26 nM

Now this one: `O=C(O)CCCCN(CCCc1ccccc1)C(=O)C1(c2ccc3c(c2)OCO3)CC1`
1060 nM

Now this one: `COc1cc(OC)c(Cl)c(C(=O)N(CCCCC(=O)O)CCCc2ccccc2)c1`
54 nM
